Target: Sodium-dependent dopamine transporter (Homo sapiens)
Sequence (Q01959 whole entry): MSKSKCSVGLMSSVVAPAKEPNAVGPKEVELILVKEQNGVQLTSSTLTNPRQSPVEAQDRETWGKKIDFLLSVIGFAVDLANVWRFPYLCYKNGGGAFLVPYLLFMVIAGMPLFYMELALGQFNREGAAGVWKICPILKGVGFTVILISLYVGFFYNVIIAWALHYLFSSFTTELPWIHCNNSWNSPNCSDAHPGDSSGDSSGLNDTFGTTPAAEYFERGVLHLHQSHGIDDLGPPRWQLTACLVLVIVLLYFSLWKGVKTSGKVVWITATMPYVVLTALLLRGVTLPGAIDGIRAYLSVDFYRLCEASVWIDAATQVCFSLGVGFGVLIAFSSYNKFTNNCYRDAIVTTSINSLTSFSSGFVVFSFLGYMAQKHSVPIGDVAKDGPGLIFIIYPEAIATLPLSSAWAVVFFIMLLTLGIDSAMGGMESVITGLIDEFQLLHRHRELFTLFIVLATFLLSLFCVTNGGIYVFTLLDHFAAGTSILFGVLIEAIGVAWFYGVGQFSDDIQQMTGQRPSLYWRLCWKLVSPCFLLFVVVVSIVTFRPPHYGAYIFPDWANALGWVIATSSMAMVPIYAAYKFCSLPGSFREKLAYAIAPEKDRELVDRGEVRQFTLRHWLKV
Test: Selectivity interaction (Dopamine Transporter assay, human recombinant ) EUB0000877a SLC6A3
pIC50: −log10 of the molar value.
parameter.measured: pIC50

CCC(=O)N1CC[C@H](Nc2ncnc3c2CN(c2cnc(OC)c(C(F)(F)F)c2)CC3)C1    < 4.52

###

Molecular target: Aurora kinase B (Homo sapiens, UniProt Q96GD4)
Sequence (Q96GD4 whole entry): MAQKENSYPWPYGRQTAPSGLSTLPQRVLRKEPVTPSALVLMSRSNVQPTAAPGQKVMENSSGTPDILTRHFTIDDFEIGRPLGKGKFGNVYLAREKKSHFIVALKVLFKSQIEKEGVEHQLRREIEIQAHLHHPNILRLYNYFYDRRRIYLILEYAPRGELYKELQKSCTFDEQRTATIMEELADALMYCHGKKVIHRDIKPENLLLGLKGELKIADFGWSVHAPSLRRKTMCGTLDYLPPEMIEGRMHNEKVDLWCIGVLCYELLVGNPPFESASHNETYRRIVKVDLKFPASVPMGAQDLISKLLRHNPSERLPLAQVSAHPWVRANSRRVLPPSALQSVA
Assay: Selectivity interaction (Kinase panel (Enzyme activity assay)) EUB0000612a AURKB
parameter.measured: IC50

CCc1cccc(CC)c1NC(=O)c1nn(C)c2c1CCc1cnc(Nc3ccc(C(=O)NC4CCN(C)CC4)cc3OC(F)(F)F)nc1-2    > 10 µM
